TARGET OR TEST SYSTEM: T1, apical domain of human CD71 (human, UniProt P02786 189-383, limits assumed)
T1 construct: domain: apical domain; Screen 4 panned on human apical domains, the ELISA text says only 'apical domain'
T1 sequence (P02786 189-383 limits assumed): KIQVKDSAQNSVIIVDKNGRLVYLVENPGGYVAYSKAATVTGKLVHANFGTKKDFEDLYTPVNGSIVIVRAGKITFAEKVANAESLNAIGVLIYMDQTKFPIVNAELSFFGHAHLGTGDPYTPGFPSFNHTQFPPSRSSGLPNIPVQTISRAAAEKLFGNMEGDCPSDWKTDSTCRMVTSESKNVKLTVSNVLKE
ASSAY EXPLANATION: primary ELISA; further: test concentration or dose not given here
MEASUREMENT KIND: RLU (RLU)
A number alone suffices; assume RLU.

CD71-binding FN3 domain of SEQ ID NO: 500 (designed binder) MLPAPKNLVVSRVTEDSARLSWTAPDAAFDSFFIGYLEPQPPGEAIDLLVPGSERSYDLTGLKPGTEYNVTIQGVKGGFPSMPLSAIFTT | 3.39e+06
CD71-binding FN3 domain of SEQ ID NO: 463 (designed binder) MLPAPKNLVVSRVTEDSARLSWTAPDAAFDSFLILYIEQDHRGEAIVLTVPGSERSYDLTGLKPGTEYWVHITGVKGGYYSAPLSAIFTT | 5.51e+06
CD71-binding FN3 domain of SEQ ID NO: 461 (designed binder) MLPAPKNLVVSRVTEDSARLSWTAPDAAFDSFFIGYLEPQPPGEAIGLFVPGSERSYDLTGLKPGTEYNVTIQGVKGGFPSMPLSPIFTT | 5.35e+06
CD71-binding FN3 domain of SEQ ID NO: 480 (designed binder) MLPAPKNLVVSRVTEDSARLSWTAPDAAFDSFEIDYAEDIREGEAIALVVPGSERSYDLTGLKPGTEYWVSIGGVKGGTWSRPLFAPFTT | 4.27e+06

The value of RLU measured for the binder CD71-binding FN3 domain of SEQ ID NO: 526 (designed binder) MLPAPKNLVVSRVTEDSARLSWTAPDAAFDSFFIGYLEPQPPGEAISLIVPGSERSYDLTGLKPGTEYNVTIQGVKGGFPSDPLIAIFTT turned out to be 5.37e+06

The value of RLU measured for the binder CD71-binding FN3 domain of SEQ ID NO: 457 (designed binder) MLPAPKNLVVSRVTEDSARLSWTAPDAAFDSFFIGYLEPQPPGEAIVLLVPGSERSYDLTGLKPGTEYNVTIQGVKGGFPSAPLVATFTT turned out to be 5.78e+06

The value of RLU measured for the binder CD71-binding FN3 domain of SEQ ID NO: 515 (designed binder) MLPAPKNLVVSRVTEDSARLSWTAPDAAFDSFFIGYLEPQPPGEAIALWVPGSERSYDLTGLKPGTEYNVTIQGVKGGFPSTPLIAQFTT turned out to be 4.67e+06

The value of RLU measured for the binder CD71-binding FN3 domain of SEQ ID NO: 497 (designed binder) MLPAPKNLVVSRVTEDSARLSWTAPDAAFDSFFIGYLEPQPPGEAITLLVPGSERSYDLTGLKPGTEYNVTIQGVKGGFPSKPLYAYFTT turned out to be 4.58e+06

The value of RLU measured for the binder CD71-binding FN3 domain of SEQ ID NO: 456 (designed binder) MLPAPKNLVVSRVTEDSARLSWTAPDAAFDSFFIGYLEPQPPGEAIALYVPGSERSYDLTGLKPGTEYNVTIQGVKGGFPSHPLQAHFTT turned out to be 4.31e+06

The value of RLU measured for the binder CD71-binding FN3 domain of SEQ ID NO: 474 (designed binder) MLPAPKNLVVSRVTEDSARLSWTAPDAAFDSFFIGYLEPQPPGEAIGLAVPGSERSYDLTGLKPGTEYNVTIQGVKGGFPSEPLIADFTT turned out to be 2.72e+06

The value of RLU measured for the binder CD71-binding FN3 domain of SEQ ID NO: 518 (designed binder) MLPAPKNLVVSRVTEDSARLSWTAPDAAFDSFFIGYLEPQPPGEAISLWVPGSERSYDLTGLKPGTEYNVTIQGVKGGFPSDPLGAHFTT turned out to be 3.34e+06
